# Test system: HUVEC proliferation in the presence of VEGF
# measurement description: HUVEC 2D growth assay, cell proliferation by VEGF stimulation
# Assay type: cell-based
# settings: Homo sapiens, 72 h, VEGF 20 ng/mL, 3 days, CellTiter-Glo
observable: pIC50
Recall that pIC50 is obtained by taking minus log10 of the concentration measured in molar.

What does the record list as pIC50 for `CCNC(=O)Nc1ccc(Oc2ccnc3cc(OC)c(C(N)=O)cc23)cc1Cl` ? 8.76
